assay_system: human Kv1.3 (Homo sapiens, UniProt P22001)
Sequence (P22001 whole entry): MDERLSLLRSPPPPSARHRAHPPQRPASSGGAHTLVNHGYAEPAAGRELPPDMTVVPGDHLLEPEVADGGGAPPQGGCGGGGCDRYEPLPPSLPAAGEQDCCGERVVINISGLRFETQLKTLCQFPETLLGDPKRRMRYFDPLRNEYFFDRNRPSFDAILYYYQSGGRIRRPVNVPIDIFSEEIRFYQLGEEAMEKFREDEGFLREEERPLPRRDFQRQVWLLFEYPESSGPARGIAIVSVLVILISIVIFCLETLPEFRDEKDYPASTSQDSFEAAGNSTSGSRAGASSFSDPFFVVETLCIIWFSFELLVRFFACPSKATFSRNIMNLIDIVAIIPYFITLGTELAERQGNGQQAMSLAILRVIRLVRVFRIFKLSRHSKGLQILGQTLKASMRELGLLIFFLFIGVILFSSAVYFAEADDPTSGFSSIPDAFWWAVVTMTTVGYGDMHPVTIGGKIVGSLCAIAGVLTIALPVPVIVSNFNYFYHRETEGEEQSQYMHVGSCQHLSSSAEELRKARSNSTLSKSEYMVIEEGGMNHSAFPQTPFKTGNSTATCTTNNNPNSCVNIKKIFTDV
protocol: IonWorks automated patch clamp assay of inhibitory activity against Kv1.3
Assay type: cell-based
settings: automated patch clamp method; CHO-K1 cells stably expressing human Kv1.3
pIC50: −log10 of the molar value.
measured_parameter: pIC50

• CCCS(=O)(=O)N(Cc1ccccc1)c1ccc(N2CCN(C(=O)OCC)CC2)c(C#N)c1 = 6.48
• CC(=O)NC1CCN(c2ccc(N(Cc3ccccc3)S(=O)(=O)c3ccccc3)cc2C#N)C1 (stereo not shown) = 6.51
• CCCS(=O)(=O)N(Cc1ccc(Cl)cc1)c1ccc(N2CCN(C(=O)OCC)CC2)c(C#N)c1 = 7.07
• CCCS(=O)(=O)N(Cc1ccncc1)c1ccc(N2CCN(C(=O)N(C)C)CC2)c(C#N)c1 = 6.88
